assay: S. pombe growth modifiers, basal conditions – strain 972, OD600, 24 h, no modulator, primary screen (AID 1090);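 note: basal condition with compound alone and no growth modifier present; test concentration not given here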; conditions: S. pombe 972 growth, higher = more signal, called active from +8 up or from −8 down
The source made the active and inactive calls.
EXPERIMENTAL ENDPOINT: z-score

**Q:** Endpoint output: z-score of C=C(COC)/C(=C/C[C@H](OC(C)=O)c1ccccc1OCCO)c1cnc2ccccc2c1 . Value?
**A:** 0.14 (inactive)

**Q:** Field entry: Cc1ccc([C@H]2C(C(=O)O)=C[C@@H](C(C)C)N2S(=O)(=O)c2ccc(C)cc2)cc1
**A:** 0.0459 (inactive)

**Q:** Field entry: NC(=O)[C@]1(Cc2ccccc2)N=C(c2ccc(OCCCO)cc2)O[C@@H]1c1ccccc1
**A:** -1.17 (inactive)

**Q:** Field entry: C=CC[C@@]1(C(=O)OC)N=C(c2ccc(OCCCO)cc2)O[C@@H]1c1ccccc1CN=[N+]=[N-]
**A:** -4.42 (inactive)

**Q:** Field entry: C=C(/C(=C/C[C@@H](OC(=O)c1ccncc1)c1ccc(CO)o1)c1cc(C(=O)OC)ccc1OC)C(C)C
**A:** -1.28 (inactive)

**Q:** Field entry: O=C1O[C@H](c2ccccc2)[C@H](c2ccccc2)N2[C@H]1[C@@H](C(=O)Nc1nc3ccccc3s1)[C@]1(C(=O)Nc3ccc(C#CC4=CCCCC4)cc31)[C@H]2c1ccc(OCCO)cc1
**A:** 1.42 (inactive)

**Q:** Field entry: COC(=O)[C@@]1(Cc2ccc(F)cc2)[C@H]2c3cc(C(=O)N(C)C)n(Cc4ccccn4)c3C[C@H]2CN1C(=O)c1ccccc1
**A:** -0.306 (inactive)

**Q:** Field entry: COCCOC(=O)N1C(=O)[C@@]2(c3cc(C#Cc4ccc(OC)cc4)ccc31)[C@H](c1ccc(O)cc1)N1[C@H](c3ccccc3)[C@H](c3ccccc3)OC(=O)[C@H]1[C@@H]2C(=O)N1CCN(c2ncccn2)CC1
**A:** 1.16 (inactive)

**Q:** Field entry: C[n+]1ccc2ccc(O)cc2c1
**A:** -0.208 (inactive)

**Q:** Field entry: C=CCC(OC(C)=O)[C@@H]1[C@@H](N(Cc2ccc(-c3ccccc3)cc2)C(=O)c2ccc(C)cc2)c2cc(OCCCO)ccc2N1C(=O)Cc1ccc(OC)cc1 (stereo partly drawn)
**A:** -1.13 (inactive)

**Q:** Field entry: COc1ccc([Si](C)(C)[C@@H]2[C@@H](CC(=O)N3Cc4ccccc4C[C@H]3CO)O[C@]3(C(=O)N(Cc4cccc(N5C(=O)COc6ccccc65)c4)c4ccccc43)[C@H]2C)cc1
**A:** 0.553 (inactive)

**Q:** Field entry: CO[C@H]1O[C@H](CO)[C@@H](OC(=O)Nc2ccccc2-c2ccccc2)[C@H](OC(=O)Nc2ccccc2-c2ccccc2)[C@H]1OC(=O)Nc1ccccc1-c1ccccc1
**A:** 2.48 (inactive)

**Q:** Field entry: CN1C(=O)C2C=CC(C(O)C3=C[C@H]4C[C@@H](C3)C4(C)C)N(Nc3ccc([N+](=O)[O-])cc3[N+](=O)[O-])C2C1=O (stereo partly drawn)
**A:** 0.595 (inactive)

====

test system: Inhibin beta A chain (activin A); test: small molecules binding activin A – biochemical, small-molecule microarray, 635 nm fluorescence scan, primary screen (AID 1107); conditions: INHBA, higher = more signal;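 note: mouse activin A protein probed at 4.33 µg/mL on printed slides; score merges bound-protein fluorescence near 667 nm with spot signal-to-noise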
Assign composite z-score to each entry below.

**Q:** Endpoint output: composite z-score of C=C(C(=O)CC[C@@H](OC(C)=O)c1ccc(OCCO)cc1)C(C)C . Value?
**A:** 0.815

**Q:** Field entry: C=C(CCCC)C(=O)CC[C@H](OC(=O)c1ccccc1-c1ccccc1C(=O)O)c1ccc(CO)o1
**A:** 0.64

**Q:** Field entry: COCCn1c(C(=O)N(C)C)cc2c1C[C@H]1CN(C(=O)c3ccccc3)[C@@](Cc3ccc(F)cc3)(C(=O)OC)[C@@H]21
**A:** 0.692

**Q:** Field entry: O=P(NCC1(CC2(c3ccccc3)CO2)CC1)(c1ccccc1)c1ccccc1 (centres undefined)
**A:** 0.758

Where these numbers come from: PubChem BioAssay
